# ASSAY_REMARKS: BSK_3C_SRB: Viability Assessment in the BioMAP Diversity Plus: 3C Assay (AID 2283023);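 also: cells read 24 h after compound dosing; fitted both ways against DMSO so a hit may be signal rise or drop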
# ASSAY_CONDITIONS: primary human endothelial cells (HUVEC)
Calls of active or inactive are those of the source. The calls were made as follows: active = hit-call score of the fitted dose curve at least 0.9, where 1 is the maximum; inactive = score below 0.9.
Classes used: active, inactive

{"COMPOUND": "CCOP(=O)(NC(C)C)Oc1ccc(SC)c(C)c1 (stereo not drawn)", "ANSWER_LABEL": "inactive"}
{"COMPOUND": "CCOP(=S)(OCC)Oc1ccc2c(C)c(Cl)c(=O)oc2c1", "ANSWER_LABEL": "inactive"}
{"COMPOUND": "CCOP(=O)(OCC)Oc1cc(C)nc(C(C)C)n1", "ANSWER_LABEL": "inactive"}
{"COMPOUND": "CC(=NC#N)N(C)Cc1ccc(Cl)nc1", "ANSWER_LABEL": "inactive"}
{"COMPOUND": "CCCCN(CC)c1c([N+](=O)[O-])cc(C(F)(F)F)cc1[N+](=O)[O-]", "ANSWER_LABEL": "active"}
{"COMPOUND": "CC(C1CC1)C(O)(Cn1cncn1)c1ccc(Cl)cc1 (stereo not drawn)", "ANSWER_LABEL": "inactive"}
{"COMPOUND": "CCC(=O)Nc1ccc(Cl)c(Cl)c1", "ANSWER_LABEL": "inactive"}
{"COMPOUND": "FC(F)C(F)(F)OCC(Cn1cncn1)c1ccc(Cl)cc1Cl (stereo not drawn)", "ANSWER_LABEL": "active"}
{"COMPOUND": "C#CCC1=C(C)C(OC(=O)C2C(C=C(C)C)C2(C)C)CC1=O (stereo not drawn)", "ANSWER_LABEL": "active"}
{"COMPOUND": "CCCSP(=O)(OCC)SCCC", "ANSWER_LABEL": "inactive"}
{"COMPOUND": "CCc1cccc(CC)c1N(COC)C(=O)CCl", "ANSWER_LABEL": "active"}
{"COMPOUND": "CNC(=O)ON=C(SC)C(=O)N(C)C", "ANSWER_LABEL": "inactive"}
{"COMPOUND": "O=c1ccc(=O)[nH][nH]1", "ANSWER_LABEL": "inactive"}
